Origin of measurements: ChEMBL document CHEMBL2163234

protocol_details: Cmax in BALB/c mouse plasma at 10 mg/kg, po administered as single dose
Type: ADME, organism-based
Parameters: dose 10 mg/kg, route oral
measurement_name: Cmax (nM)

1 = CN1CCN(C(=O)c2ccc3c(c2)-c2nc(N)nc(-c4ccccc4)c2C3=O)CC1
2 = Nc1nc(-c2ccccc2)c2c(n1)-c1cc(OCCN3CCOCC3)ccc1C2=O
Between 1 and 2 , which one shows the smaller Cmax number? Write down the label attached to your selection.
2

---

target_desc: Adenosine receptor A2a (Homo sapiens, UniProt P29274)
Sequence (P29274 whole entry): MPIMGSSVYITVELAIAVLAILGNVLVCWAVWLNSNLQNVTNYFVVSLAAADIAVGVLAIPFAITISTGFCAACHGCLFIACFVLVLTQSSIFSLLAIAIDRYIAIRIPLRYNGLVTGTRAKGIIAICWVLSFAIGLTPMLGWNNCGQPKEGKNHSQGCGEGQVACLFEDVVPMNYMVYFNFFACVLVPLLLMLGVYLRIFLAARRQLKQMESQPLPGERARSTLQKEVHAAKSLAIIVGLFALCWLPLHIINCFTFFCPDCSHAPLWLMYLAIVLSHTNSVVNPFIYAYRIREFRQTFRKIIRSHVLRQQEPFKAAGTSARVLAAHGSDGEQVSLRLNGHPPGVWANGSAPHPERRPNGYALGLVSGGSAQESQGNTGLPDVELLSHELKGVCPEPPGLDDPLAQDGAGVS
protocol_details: Antagonist activity at human Adenosine receptor A2a assessed as inhibition of cAMP production
measurement_name: Ki (nM)

Solved cases below.
[
  {
    "compound": "Nc1nc(-c2ccccc2)c2c(n1)-c1cc(C(F)(F)c3cccnc3)ccc1C2=O",
    "target_desc": "Adenosine receptor A2a (Homo sapiens, UniProt P29274)",
    "quantitative_readout": 1.6
  },
  {
    "compound": "Nc1nc(-c2ccccc2)c2c(n1)-c1cc(Cc3cccnc3)ccc1C2=O",
    "target_desc": "Adenosine receptor A2a (Homo sapiens, UniProt P29274)",
    "quantitative_readout": 0.3
  },
  {
    "compound": "Nc1nc(-c2ccccc2)c2c(n1)-c1cc(CN3C4CCC3CC4)ccc1C2=O",
    "target_desc": "Adenosine receptor A2a (Homo sapiens, UniProt P29274)",
    "quantitative_readout": 3.1
  }
]

I = CC1CC[C@@H](C)N1Cc1ccc2c(c1)-c1nc(N)nc(-c3ccccc3)c1C2=O (mixture of isomers)
II = Nc1nc(-c2ccccc2)c2c(n1)-c1cc(Cc3cnccc3Cl)ccc1C2=O
Rank I against II by their Ki values and give the higher one. Write down the label attached to your selection.
I
(I: 13.1 nM, II: 0.1 nM)
